Cited source: patent US11098038B2

System: SNB-75
// boundary case: GI50 equal to 7 µM maps to NOT MET; strictly smaller maps to MET

- Chemical Structure: "Cn1ccnc1C(=O)/C=C/c1ccc(CC(=O)Nc2ccc(F)cc2)cc1"
  Discrete Label: "MET"
- Chemical Structure: "O=C(Cc1ccc(/C=C/C(=O)c2ncc[nH]2)cc1)Nc1ccc(Cl)cc1"
  Discrete Label: "MET"
- Chemical Structure: "Cn1ccnc1C(=O)/C=C/c1ccc(CC(=O)Nc2ccccc2)cc1"
  Discrete Label: "NOT MET"
- Chemical Structure: "CCn1ccnc1C(=O)/C=C/c1ccc(CC(=O)Nc2ccc(F)cc2)cc1"
  Discrete Label: "MET"
